# Tested on: 227483-062-R1-J1-PDC complex spheroids with HUVEC/MSC, viability
# assay-remarks: Anticancer human tumor 227483-062-R1-J1-PDC patient-derived pancreatic carcinoma cell line growth inhibition [CLK]; active = viability on the fitted dose curve at most 10% of control; inactive = the rest
# experimental-context: second compound 10 µM; first compound 0.1 µM
Outcome codes: active, inactive

[[record]]
compound = "C=CC(=O)N1CCN(c2nc(=O)n(-c3c(C)ccnc3C(C)C)c3nc(-c4c(O)cccc4F)c(F)cc23)C(C)C1 (centres undefined) + CN1CCN(c2cc(C(=O)Nc3cc4cc(-c5cnn(C)c5)ccc4cn3)ccn2)CC1"
assigned_label = "active"

[[record]]
compound = "COc1cccc2c1C(=O)c1c(O)c3c(c(O)c1C2=O)CC(O)(C(=O)CO)CC3OC1CC(N)C(O)C(C)O1 (centres undefined) + CNC(=O)c1ccc(Nc2nc(OC3CCCC3)c3c(-c4ccc5nc(C)oc5c4)c[nH]c3n2)c(OC)c1"
assigned_label = "inactive"

[[record]]
compound = "CCCS(=O)(=O)Nc1ccc(F)c(C(=O)c2c[nH]c3ncc(-c4ccc(Cl)cc4)cc23)c1F + CNC(=O)c1ccc(Nc2nc(OC3CCCC3)c3c(-c4ccc5nc(C)oc5c4)c[nH]c3n2)c(OC)c1"
assigned_label = "inactive"

[[record]]
compound = "CC(=O)O[C@H]1C(=O)[C@@]2(C)[C@H]([C@H](OC(=O)c3ccccc3)[C@]3(O)C[C@H](OC(=O)[C@H](O)[C@@H](NC(=O)c4ccccc4)c4ccccc4)C(C)=C1C3(C)C)[C@]1(OC(C)=O)CO[C@@H]1C[C@@H]2O + CN1CCN(c2cc(C(=O)Nc3cc4cc(-c5cnn(C)c5)ccc4cn3)ccn2)CC1"
assigned_label = "active"


====

# Tested on: 227483-062-R1-J1-PDC complex spheroids with HUVEC/MSC, viability
# assay-remarks: Anticancer human tumor 227483-062-R1-J1-PDC cell line growth inhibition [CLK]; active means viability on the fitted dose curve at most 10% of control; inactive means the rest;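 note: spheroids exposed to compounds for seven days before readout; percent of DMSO vehicle control luminescence as 100% viability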
# experimental-context: second compound 1 µM; first compound 0.00949 µM
Classes used: true (1) = active, false (0) = inactive

[[record]]
molecule = "CC(C)CC(NC(=O)C(Cc1ccccc1)NC(=O)c1cnccn1)B(O)O (stereo unspecified) + CN1CCN(c2cc(C(=O)Nc3cc4cc(-c5cnn(C)c5)ccc4cn3)ccn2)CC1"
target_or_test_system = "227483-062-R1-J1-PDC complex spheroids with HUVEC/MSC, viability"
assigned_label = "true (1)"

[[record]]
molecule = "C=CC(=O)Nc1cc(Nc2nccc(-c3cn(C)c4ccccc34)n2)c(OC)cc1N(C)CCN(C)C + CN1CCN(c2cc(C(=O)Nc3cc4cc(-c5cnn(C)c5)ccc4cn3)ccn2)CC1"
target_or_test_system = "227483-062-R1-J1-PDC complex spheroids with HUVEC/MSC, viability"
assigned_label = "true (1)"

[[record]]
molecule = "CC(C)CC(NC(=O)C(Cc1ccccc1)NC(=O)c1cnccn1)B(O)O (stereo unspecified) + CNC(=O)c1ccc(Nc2nc(OC3CCCC3)c3c(-c4ccc5nc(C)oc5c4)c[nH]c3n2)c(OC)c1"
target_or_test_system = "227483-062-R1-J1-PDC complex spheroids with HUVEC/MSC, viability"
assigned_label = "true (1)"

[[record]]
molecule = "NC(=O)C(=Cn1cnc(-c2cc(C(F)(F)F)cc(C(F)(F)F)c2)n1)c1cncnc1 + CNC(=O)c1ccc(Nc2nc(OC3CCCC3)c3c(-c4ccc5nc(C)oc5c4)c[nH]c3n2)c(OC)c1"
target_or_test_system = "227483-062-R1-J1-PDC complex spheroids with HUVEC/MSC, viability"
assigned_label = "false (0)"

[[record]]
molecule = "C=CC(=O)Nc1cc(Nc2nccc(-c3cn(C)c4ccccc34)n2)c(OC)cc1N(C)CCN(C)C + CNC(=O)c1ccc(Nc2nc(OC3CCCC3)c3c(-c4ccc5nc(C)oc5c4)c[nH]c3n2)c(OC)c1"
target_or_test_system = "227483-062-R1-J1-PDC complex spheroids with HUVEC/MSC, viability"
assigned_label = "false (0)"

[[record]]
molecule = "NC(=O)C(=Cn1cnc(-c2cc(C(F)(F)F)cc(C(F)(F)F)c2)n1)c1cncnc1 + CN1CCN(c2cc(C(=O)Nc3cc4cc(-c5cnn(C)c5)ccc4cn3)ccn2)CC1"
target_or_test_system = "227483-062-R1-J1-PDC complex spheroids with HUVEC/MSC, viability"
assigned_label = "true (1)"

